Molecular target: T1, UBXD1-PUB (150–264) N184A (UniProt Q9BZV1 150-264, N184A)
T1 construct: UBXD1 PUB domain construct, residues 150-264, point mutant; source: E. coli Rosetta2, purified (Ni-NTA, thrombin cleavage of the tag, SEC); not shown: His6, N-terminal, cleaved
T1 sequence (looked up): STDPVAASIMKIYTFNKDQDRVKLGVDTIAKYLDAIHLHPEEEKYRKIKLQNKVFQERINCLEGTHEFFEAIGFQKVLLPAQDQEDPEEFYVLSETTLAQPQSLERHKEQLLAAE
Experiment: fluorescence polarisation; fluorescence anisotropy; PUB constructs titrated to 100 nM 5,6-FAM labeled p97-C10 peptide; 50 mM NaKPi pH 6.5, 25 °C; triplicate; one-site quadratic fit
Conditions: both partners purified
No end group written: not given here.
experimentalEndpoint: pKd
Kindly note that pKd refers to -log10 of the concentration in mol/L and answer with the value alone.

(Q) Look at this binder and give its reported pKd. TEDNDDDLYG (also: 5,6-FAM label, position not given here, source: synthetic peptide, bought: Caslo ApS (Denmark)) [5,6-FAM-labeled p97-C10 peptide]
(A) 4.54
